settings: in formic acid, 303.15 K
MEASURED QUANTITY: solubility (mole fraction)

- CC(C(=O)O)c1ccc2c(c1)[nH]c1ccc(Cl)cc12 (stereo unspecified): 0.00116

###

conditions: in n-propanol, 308.15 K
MEASURED QUANTITY: solubility (mole fraction)

• CC(C(=O)O)c1ccc2c(c1)[nH]c1ccc(Cl)cc12 (stereo unspecified) = 0.0418

###

conditions: in n-butanol, 323.15 K
MEASURED QUANTITY: solubility (mole fraction)

- CC(C(=O)O)c1ccc2c(c1)[nH]c1ccc(Cl)cc12 (stereo unspecified): 0.0526

###

conditions: in formic acid, 318.15 K
MEASURED QUANTITY: solubility (mole fraction)

• CC(C(=O)O)c1ccc2c(c1)[nH]c1ccc(Cl)cc12 (stereo unspecified) = 0.00287
